- target-of-assay: T1, extracellular domain of rhesus monkey BCMA (rhesus monkey, UniProt F7FFA0 1-53)
- T1 construct: extracellular domain; also called RhBCMA
- T1 sequence (F7FFA0 entry or part of it): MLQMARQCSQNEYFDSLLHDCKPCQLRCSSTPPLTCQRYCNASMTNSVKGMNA
- assay-overview: Octet BLI; Fab 200 nM
measurement-label: Kd (nM)
Please state the figure in nM; there is no need to write the unit.

# count of solved cases: 2
Consider the binder AB200-R1a-Fab_Vk28 (Fab, V domains shown) VH: QVQLVQSGAEVKKPGSSVKVSCKASGGTFSNYWMHWVRQAPGQGLEWMGATYRGHSDTYYNQKFKGRVTITADKSTSTAYMELSSLRSEDTAVYYCARGAIYHGYDVLDNWGQGTLVTVSS VL: DIQMTQSPSSLSASVGDRVTITCSASQDISNFLNWYQQKPGKAPKLLIYYTSNMHSGVPSRFSGSGSGTDFTLTISSLQPEDFATYYCQQYRSLPWTFGQGTKLEIKR . State its measured Kd.
7.57

Retrieve Kd measured for AB200-R1a-Fab_Vk11 (Fab, V domains shown) VH: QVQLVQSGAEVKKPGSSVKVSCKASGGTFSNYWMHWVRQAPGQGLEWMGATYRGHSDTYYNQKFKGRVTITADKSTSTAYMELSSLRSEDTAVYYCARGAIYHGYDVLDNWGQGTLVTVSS VL: DIQMTQSPSSLSASVGDRVTITCRASQDVSNYLNWYQQKPGKAPKLLIYYTTNLHSGVPSRFSGSGSGTDFTLTISSLQPEDFATYYCQQYRKLPWTFGQGTKLEIKR and print it.
5.74

Further cases:
Fill in Kd for record AB200-R1a-Fab_Vk13 (Fab, V domains shown) VH: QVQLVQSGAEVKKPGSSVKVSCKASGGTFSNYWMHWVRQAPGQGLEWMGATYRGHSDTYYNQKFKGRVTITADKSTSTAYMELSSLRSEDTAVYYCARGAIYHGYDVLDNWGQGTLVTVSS VL: DIQMTQSPSSLSASVGDRVTITCSASNDISNYLNWYQQKPGKAPKLLIYYSSDLHSGVPSRFSGSGSGTDFTLTISSLQPEDFATYYCQQYRKLPWTFGQGTKLEIKR
24.6
